Data provenance: patent US20240116985A1

# protocol-notes: CHI Log D procedure
# Assay type: physicochemical
# test-settings: pH 7.4

compound	CHI Log D
CC(=O)N1CCC[C@]12CC=CCCCC1(CCCC=CCCCOC(=O)N3CC[C@@](C(=O)N[C@@H](Cc4ccsc4)C(=O)N[C@@H](Cc4csc5ccccc45)C(=O)N[C@@H](CO)C(N)=O)(C3)NC(=O)[C@H](CC(C)C)NC(=O)[C@H](Cc3ccccc3)NC(=O)[C@H](C)NC(=O)[C@H](C)NC(=O)[C@H](CN(CC(=O)O)CC(F)(F)F)NC(=O)[C@H](CC(=O)O)NC1=O)NC(=O)[C@H](CC(C)(C)C)NC(=O)[C@H](CC(=O)O)NC2=O (stereo partly drawn) [I-960]	2.06
CC(=O)N1CCC[C@]12CC=CCCCC1(CCCC=CCCCCCC[C@@](C)(C(=O)N[C@@H](Cc3ccccc3)C(=O)N[C@@H](Cc3c[nH]c4ccccc34)C(=O)N[C@@H](CCC(N)=O)C(N)=O)NC(=O)[C@H](C(C)C)NC(=O)[C@H](Cc3cccc(C)c3)NC(=O)[C@H](C)NC(=O)[C@H](C)NC(=O)[C@H](CCC(=O)O)NC(=O)[C@H](CC(=O)O)NC1=O)NC(=O)[C@H](C)NC(=O)[C@H](CC(=O)O)NC2=O (stereo partly drawn)	2.054
CC[C@H](C)[C@@H]1NC(=O)[C@H](CC(=O)O)NC(=O)[C@]2(CC=CCCCC3(CCCC=CCCCCCC[C@@](C)(C(=O)N[C@@H](Cc4ccsc4)C(=O)N[C@@H](Cc4csc5ccccc45)C(=O)N[C@@H](CCC(N)=O)C(N)=O)NC(=O)[C@H](CC(N)=O)NC(=O)[C@H](Cc4ccccc4)NC(=O)[C@H](C)NC(=O)[C@H](C)NC(=O)[C@H](CN(CC(=O)O)CC(F)(F)F)NC(=O)[C@H](CC(=O)O)NC3=O)NC1=O)CCCN2C(C)=O (stereo partly drawn) [I-700]	2.607

###

# assay-system: full-length beta-Catenin (Uniprot ID P35222) (Homo sapiens)
# Construct: 10 nM full-length beta-Catenin (Uniprot ID P35222)
# Sequence (P35222 1-781): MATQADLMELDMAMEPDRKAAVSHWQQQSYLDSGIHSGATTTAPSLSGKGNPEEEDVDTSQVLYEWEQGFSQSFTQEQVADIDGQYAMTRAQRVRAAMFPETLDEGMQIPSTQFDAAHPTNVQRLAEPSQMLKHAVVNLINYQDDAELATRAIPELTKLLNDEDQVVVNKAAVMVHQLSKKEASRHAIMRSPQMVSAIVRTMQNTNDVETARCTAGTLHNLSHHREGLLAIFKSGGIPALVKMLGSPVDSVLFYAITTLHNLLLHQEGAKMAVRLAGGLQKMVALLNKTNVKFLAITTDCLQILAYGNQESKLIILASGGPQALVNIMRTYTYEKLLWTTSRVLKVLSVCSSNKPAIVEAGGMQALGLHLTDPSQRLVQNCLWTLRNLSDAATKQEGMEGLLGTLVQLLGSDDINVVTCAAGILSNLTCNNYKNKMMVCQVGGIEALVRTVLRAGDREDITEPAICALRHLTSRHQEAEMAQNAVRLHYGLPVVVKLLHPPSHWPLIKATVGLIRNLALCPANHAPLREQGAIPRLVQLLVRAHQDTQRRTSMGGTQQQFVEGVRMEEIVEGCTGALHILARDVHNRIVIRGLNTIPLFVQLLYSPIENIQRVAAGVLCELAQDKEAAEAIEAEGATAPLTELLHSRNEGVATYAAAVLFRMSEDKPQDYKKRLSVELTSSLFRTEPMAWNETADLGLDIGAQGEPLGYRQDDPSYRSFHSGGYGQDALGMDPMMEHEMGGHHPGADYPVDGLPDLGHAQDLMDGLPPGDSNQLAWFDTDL
# protocol-notes: Fluorescence polarization IC50 (beta-catenin / 5FAM-TCF4 10-53 competition)
# Assay type: binding
# test-settings: fluorescence polarization; read-out: beta-Catenin FP IC50

compound	IC50 [nM]
CC[C@H](C)[C@@H]1NC(=O)[C@H](CC(=O)O)NC(=O)[C@]2(CC=CCCCC3(CCCC=CCCCCCC[C@@](C)(C(=O)N[C@@H](Cc4ccccc4)C(=O)N[C@@H](Cc4csc5ccccc45)C(=O)N[C@@H](Cc4c[nH]cn4)C(N)=O)NC(=O)[C@H](CC(N)=O)NC(=O)[C@H](Cc4ccccc4)NC(=O)[C@H](C)NC(=O)[C@H](C)NC(=O)[C@H](CCC(=O)O)NC(=O)[C@H](CC(=O)O)NC3=O)NC1=O)CCCN2C(C)=O (stereo partly drawn)	62
CC(=O)N1CCC[C@]12CC=CCCCC1(CCCC=CCCCOC(=O)N3CC[C@@](C(=O)N[C@@H](Cc4ccccc4Cl)C(=O)N[C@@H](Cc4csc5ccccc45)C(=O)N[C@H](C(N)=O)[C@@H](C)O)(C3)NC(=O)[C@H](CC(C)C)NC(=O)[C@H](Cc3ccccc3)NC(=O)[C@H](C)NC(=O)[C@H](C)NC(=O)[C@H](CC(=O)O)NC(=O)[C@H](CC(=O)O)NC1=O)NC(=O)[C@H](Cc1ccccc1)NC(=O)[C@H](CC(=O)O)NC2=O (stereo partly drawn)	18
CC(=O)N1CCC[C@]12CC=CCCCC1(CCCC=CCCCOC(=O)N3CC[C@@](C(=O)N[C@@H](Cc4ccsc4)C(=O)N[C@@H](Cc4csc5ccccc45)C(=O)N[C@@H](C)C(N)=O)(C3)NC(=O)[C@H](CC(C)C)NC(=O)[C@H](Cc3ccccc3)NC(=O)[C@@H](C)NC(=O)[C@H](C)NC(=O)[C@H](Cc3cccc(C(=O)O)c3)NC(=O)[C@H](CC(=O)O)NC1=O)NC(=O)[C@H](CC(C)(C)C)NC(=O)[C@H](CC(=O)O)NC2=O (stereo partly drawn) [I-2096]	79

###

# assay-system: full-length beta-Catenin (Uniprot ID P35222) (Homo sapiens, UniProt P35222)
# Construct: 10 nM full-length beta-Catenin (Uniprot ID P35222)
# protocol-notes: Fluorescence polarization IC50 (beta-catenin / 5FAM-TCF4 10-53 competition)
# Format: binding
# test-settings: read-out: beta-Catenin FP IC50
pIC50: −log10 of the molar value.
observable: pIC50

compound	value
CC(=O)N1CCC[C@]12CC=CCCCC1(CCCC=CCCCOC(=O)N3CC[C@@](C(=O)N[C@@H](Cc4ccccc4Cl)C(=O)N[C@@H](Cc4csc5ccccc45)C(=O)N[C@@H](CO)C(N)=O)(C3)NC(=O)[C@H](CC(N)=O)NC(=O)[C@H](Cc3ccccc3)NC(=O)[C@H](C)NC(=O)[C@H](C)NC(=O)[C@H](CC(=O)O)NC(=O)[C@H](CC(=O)O)NC1=O)NC(=O)[C@H](CC1CCCCC1)NC(=O)[C@H](CC(=O)O)NC2=O (stereo partly shown)	8.30
CC(=O)N1CCC[C@]12CC=CCCCC1(CCCC=CCCCOC(=O)N3CC[C@@](C(=O)N[C@@H](Cc4ccccc4Cl)C(=O)N[C@@H](Cc4csc5ccccc45)C(=O)N[C@H](CO)Cc4ccccc4)(C3)NC(=O)[C@H](CC(N)=O)NC(=O)[C@H](Cc3ccccc3)NC(=O)[C@H](C)NC(=O)[C@H](C)NC(=O)[C@H](CC(=O)O)NC(=O)[C@H](CC(=O)O)NC1=O)NC(=O)[C@H](CC(C)(C)C)NC(=O)[C@H](CC(=O)O)NC2=O (stereo partly shown)	8.10
CC(=O)N1CCC[C@]12CC=CCCCC1(CCCC=CCCCOC(=O)N3CC[C@@](C(=O)N[C@@H](Cc4ccsc4)C(=O)N[C@@H](Cc4csc5ccccc45)C(=O)N[C@@H](Cc4c[nH]cn4)C(N)=O)(C3)NC(=O)[C@H]([C@@H](C)O)NC(=O)[C@H](Cc3ccccc3)NC(=O)[C@H](C)NC(=O)[C@H](C)NC(=O)[C@H](CC(=O)O)NC(=O)[C@H](CC(=O)O)NC1=O)NC(=O)[C@H](CC(C)(C)C)NC(=O)[C@H](CC(=O)O)NC2=O (stereo partly shown)	8.22
CC(=O)N1CCC[C@]12CC=CCCCC1(CCCC=CCCCOC(=O)N3CC[C@@](C(=O)N[C@@H](Cc4ccsc4)C(=O)N[C@@H](Cc4csc5ccccc45)C(=O)N[C@@H](CCC(N)=O)C(N)=O)(C3)NC(=O)[C@H](Cc3ccccc3)NC(=O)[C@H](Cc3ccccc3)NC(=O)[C@H](C)NC(=O)[C@H](C)NC(=O)[C@H](CC(N)=O)NC(=O)[C@H](CC(=O)O)NC1=O)NC(=O)[C@H](CC(C)(C)C)NC(=O)[C@H](CC(=O)O)NC2=O (stereo partly shown)	7.66
CC(=O)N1CCC[C@]12CC=CCCCC1(CCCC=CCCCCCC[C@@](C)(C(=O)N[C@@H](Cc3ccccc3)C(=O)N[C@@H](Cc3csc4ccccc34)C(=O)N[C@H](CO)C(N)=O)NC(=O)[C@H](CC(N)=O)NC(=O)[C@H](Cc3ccccc3)NC(=O)[C@H](C)NC(=O)[C@H](C)NC(=O)[C@H](CCC(=O)O)NC(=O)[C@H](CC(=O)O)NC1=O)NC(=O)[C@H](CC(C)C)NC(=O)[C@H](CC(=O)O)NC2=O (stereo partly shown)	7.25
CC(=O)N1CCC[C@]12CC=CCCCC1(CCCC=CCCCOC(=O)N3CC[C@@](C(=O)N[C@@H](Cc4ccsc4)C(=O)N[C@@H](Cc4csc5ccccc45)C(=O)N[C@@H](C)C(N)=O)(C3)NC(=O)[C@H](CC(N)=O)NC(=O)[C@H](Cc3ccccc3)NC(=O)[C@H](C)NC(=O)[C@H](C)NC(=O)[C@H](CN(CC(=O)O)CC(F)(F)F)NC(=O)[C@H](CC(=O)O)NC1=O)NC(=O)[C@H](CC(C)(C)C)NC(=O)[C@H](CC(=O)O)NC2=O (stereo partly shown) [I-945]	5.97
CC(=O)N1CCC[C@]12CC=CCCCC1(CCCC=CCCCCCC[C@@](C)(C(=O)N[C@@H](Cc3ccccc3)C(=O)N[C@@H](Cc3csc4ccccc34)C(=O)N[C@H](CC(N)=O)C(N)=O)NC(=O)[C@H](CC(N)=O)NC(=O)[C@H](Cc3ccccc3)NC(=O)[C@H](C)NC(=O)[C@H](C)NC(=O)[C@H](CCC(=O)O)NC(=O)[C@H](CC(=O)O)NC1=O)NC(=O)[C@H](CC(C)C)NC(=O)[C@H](CC(=O)O)NC2=O (stereo partly shown) [I-758]	7.33
CC(=O)N1CCC[C@]12CC=CCCCC1(CCCC=CCCCOC(=O)N3CC[C@@](C(=O)N[C@@H](Cc4ccsc4)C(=O)N[C@@H](Cc4csc5ccccc45)C(=O)N[C@@H](CO)C(N)=O)(C3)NC(=O)[C@H](CO)NC(=O)[C@H](Cc3ccccc3)NC(=O)[C@H](C)NC(=O)[C@H](C)NC(=O)[C@H](Cc3cccc(C(=O)O)c3)NC(=O)[C@H](CC(=O)O)NC1=O)NC(=O)[C@H](CC(C)(C)C)NC(=O)[C@H](CC(=O)O)NC2=O (stereo partly shown) [I-985]	6.37
CC(=O)N1CCC[C@]12CC=CCCCC1(CCCC=CCCCOC(=O)N3CC[C@@](C(=O)N[C@@H](Cc4ccsc4)C(=O)N[C@@H](Cc4csc5ccccc45)C(=O)N[C@@H](CCC(N)=O)C(N)=O)(C3)NC(=O)[C@H]([C@@H](C)O)NC(=O)[C@H](Cc3ccccc3)NC(=O)[C@H](C)NC(=O)[C@H](C)NC(=O)[C@H](Cc3cccc(C(=O)O)c3)NC(=O)[C@H](CC(=O)O)NC1=O)NC(=O)[C@H](CC(C)(C)C)NC(=O)[C@H](CC(=O)O)NC2=O (stereo partly shown) [I-980]	6.66
CC(=O)N1CCC[C@]12CC=CCCCC1(CCCC=CCCCCCC[C@@](C)(C(=O)N[C@@H](Cc3ccccc3Cl)C(=O)N[C@@H](Cc3csc4ccccc34)C(=O)N[C@@H](C(N)=O)[C@H](C)O)NC(=O)[C@H]([C@@H](C)O)NC(=O)[C@H](Cc3ccccc3)NC(=O)[C@H](C)NC(=O)[C@H](C)NC(=O)[C@H](CCC(=O)O)NC(=O)[C@H](CC(=O)O)NC1=O)NC(=O)[C@H](CC(C)(C)C)NC(=O)[C@H](CC(=O)O)NC2=O (stereo partly shown) [I-1093]	7.37
